Data origin, for the record: paper PMC7826789

# Tested on: ABL1(T315I)-nonphosphorylated
# stated conditions: Compound Concentration (nM):1000;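 further: KINOMEscan scanMAX binding as percent activity remaining versus control; lower means stronger binding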
result type: Percent Control (%)
Return type: number; implicit unit %.

Notebook entry, ABL1(T315I)-nonphosphorylated assay: Percent Control of CN(C)CCNC(=O)Nc1ccc(N(C)c2ccnc(Nc3ccc(CS(C)(=O)=O)cc3)n2)cc1.Cl [GW830900A] = ?
78

Request - read-out Percent Control | tested on ABL1(T315I)-nonphosphorylated | compound Cl.O=C(O[C@H]1CN[C@H](C#Cc2cc3ncnc(Nc4ccc5c(cnn5Cc5ccccc5)c4)c3s2)C1)N1CCOCC1 [GSK200398A]
100

Fill in the recorded Percent Control for this compound, with ABL1(T315I)-nonphosphorylated as test system: O=C(Nc1n[nH]c2nc(-c3ccc(O)cc3)c(Br)cc12)C1CC1 [SB-725317]
16

# returns recorded Percent Control (system: ABL1(T315I)-nonphosphorylated) for CCS(=O)(=O)c1ccc(OC)c(Nc2ncc(-c3cccc(F)c3)o2)c1 [GW621970X]
100

Under ABL1(T315I)-nonphosphorylated: Percent Control value of CCS(=O)(=O)c1ccc(OC)c(Nc2ncc(-c3cccc(OC)c3)o2)c1 [GW580509X] ?
100

Tell me reported Percent Control for COc1ccccc1-c1cc(/C=C2\C(=O)Nc3ncc(Br)cc32)cc(Br)c1O [GW442130X] , tested with ABL1(T315I)-nonphosphorylated.
87

Which Percent Control is reported with ABL1(T315I)-nonphosphorylated for this entry: COC(=O)Nc1nc2ccc(Oc3ccc(NC(=O)Nc4cc(C(F)(F)F)ccc4F)cc3)cc2s1.Cl [GW693917A] ?
5.1

###

# Tested on: CSNK1G1
# stated conditions: Compound Concentration (nM):1000
result type: Percent Control (%)
Express it in %; write the number only.

Answered examples (3):
>  <compound>
CCS(=O)(=O)c1ccc(OC)c(Nc2ncc(-c3cccc(F)c3)o2)c1 [GW621970X]

>  <tested on>
CSNK1G1

>  <numeric value>
100

$$$$
>  <compound>
COc1ccccc1-c1cc(/C=C2\C(=O)Nc3ncc(Br)cc32)cc(Br)c1O [GW442130X]

>  <tested on>
CSNK1G1

>  <numeric value>
100

$$$$
>  <compound>
CN(C)CCNC(=O)Nc1ccc(N(C)c2ccnc(Nc3ccc(CS(C)(=O)=O)cc3)n2)cc1.Cl [GW830900A]

>  <tested on>
CSNK1G1

>  <numeric value>
90

$$$$

For the compound shown here, Cl.O=C(Nc1ccc(Oc2ccc3[nH]c(NC(=O)c4ccccc4)nc3c2)cc1)Nc1cc(C(F)(F)F)ccc1F [GW709042A] , give the reported Percent Control.
100

What does the data say about its Percent Control? Entry: COc1cc2ncnc(Nc3ccc4c(cnn4Cc4ccccc4)c3)c2cc1OC.Cl [GW282449A]
100

Entry C/C(Nc1ccc(S(N)(=O)=O)cc1)=C1/C(=O)Nc2ccccc21 [GW335962X] : reported Percent Control = ?
88

Recorded Percent Control for O=C(Nc1n[nH]c2nc(-c3ccc(O)cc3)c(Br)cc12)C1CC1 [SB-725317] , please?
100

Param item = CN(C)c1cc2c(Nc3ccc4c(cnn4Cc4ccccc4)c3)ncnc2cn1 [GW282974X] ; retrieve measured Percent Control.
80

###

# Tested on: BMPR1A
# stated conditions: Compound Concentration (nM):1000
result type: Percent Control

>  <compound>
CC1=C(C(=O)Nc2ccc3[nH]ncc3c2)C(c2ccc3ccccc3c2)CC(=O)N1 (centres unmarked) [GSK270822A]

>  <result>
100%

$$$$

Which Percent Control value belongs to COc1cc(N2CCN(C(C)C)CC2)ccc1Nc1nc(Nc2ccc(F)cc2C(=O)NC[C@@H](O)CO)c2cc[nH]c2n1 [GSK1392956A] ?
100%

Please look up its Percent Control: C[C@@H](Oc1cc(-n2cnc3ccc(OC4CCN(C)CC4)cc32)sc1C(N)=O)c1ccccc1Cl [GSK579289A]
72%
